system name: UniProtKB O15297
Sequence (O15297 whole entry): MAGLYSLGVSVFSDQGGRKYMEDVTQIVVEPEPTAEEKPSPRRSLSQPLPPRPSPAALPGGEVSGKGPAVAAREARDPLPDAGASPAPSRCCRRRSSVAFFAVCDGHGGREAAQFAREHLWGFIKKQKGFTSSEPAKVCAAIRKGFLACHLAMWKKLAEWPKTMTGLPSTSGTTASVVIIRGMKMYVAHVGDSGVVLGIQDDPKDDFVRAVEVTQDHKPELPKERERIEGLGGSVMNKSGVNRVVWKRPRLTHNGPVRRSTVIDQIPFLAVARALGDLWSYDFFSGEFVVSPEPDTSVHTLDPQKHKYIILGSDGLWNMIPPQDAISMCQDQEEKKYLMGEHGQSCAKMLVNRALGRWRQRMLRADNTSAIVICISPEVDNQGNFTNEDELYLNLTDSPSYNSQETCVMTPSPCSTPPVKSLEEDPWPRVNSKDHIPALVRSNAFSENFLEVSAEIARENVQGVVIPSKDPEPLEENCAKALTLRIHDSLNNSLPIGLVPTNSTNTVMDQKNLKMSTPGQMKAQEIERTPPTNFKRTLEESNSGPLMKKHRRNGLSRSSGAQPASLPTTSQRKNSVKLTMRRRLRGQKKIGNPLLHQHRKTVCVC
protocol description: Inhibition of N-terminal histidine-tagged PPM1Dc at 4 uM after 10 mins by BIOMOL GREEN assay
readout type: inhibition (%)

| compound | readout units | obs value |
| --- | --- | --- |
| CC[Si](CC)(CC)O[C@@H]1C[C@H](C)C[C@@H]2[C@@H]1C[C@H](O[Si](C)(C)C(C)(C)C)[C@@H]1[C@](C)(CO)CC(=O)C[C@@]21C | % | 79.4 |
| CC[Si](CC)(CC)O[C@@H]1C[C@H](C)C[C@@H]2[C@@H]1C[C@H](O[Si](C)(C)C(C)(C)C)[C@@H]1[C@](C)(CO)C[C@H](O)C[C@@]21C | % | 97.1 |
| CC[Si](CC)(CC)O[C@@H]1C[C@H](C)C[C@@H]2[C@@H]1C[C@H](O[Si](C)(C)C(C)(C)C)[C@H]1[C@@]2(C)C[C@@H]2C[C@@]1(C)C(O)O2 (stereo not given in full) | % | 87.1 |

I. C[C@H]1C[C@@H](O)[C@H]2C[C@H](O[Si](C)(C)C(C)(C)C)[C@@H]3[C@](C)(CO)C[C@H](O)C[C@@]3(C)[C@@H]2C1
II. C[C@H]1C[C@@H](O)[C@H]2C[C@H](O)[C@@H]3[C@](C)(CO)C[C@H](O)C[C@@]3(C)[C@@H]2C1
Incoming: Hello, I am sorting some records. Could you say if I or II has the smaller inhibition value? The response must carry the label of the picked entry.
Outgoing: II
(II: 6.3%, I: 25.1%)
